- assayed system: HIV integrase (Human immunodeficiency virus type 1 group M subtype B)
- measurement description: biochemical
- Assay type: binding
pKd: −log10 of the molar value. Where no end group is shown, it is not given here.
metric: pKd

Req: For HIV integrase (Human immunodeficiency virus type 1 group M subtype B), provide pKd of LYETILILLFLDVDT [SEQ ID NO:7, LYETILILLFLDVDT] please.
Resp: ~5.30
